biological target: Cytochrome P450 3A7 (Homo sapiens); test: Cytochrome P450 family 3 subfamily A member 7 (CYP3A7) small molecule antagonists: luciferase biochemical qHTS assay (AID 1963596); settings: P450-Glo CYP3A7 enzyme luminescence, 1 h; series mostly up to 57.4 µM; further: nearly all actives have a fitted effect of over 40% in size
Inconclusive results are not listed. The source made the active and inactive calls. The call rests on the fitted dose curve; in most records, active means well fitted inhibition curve with a large enough effect; inconclusive means small, poorly fitted or top-dose-only effect; inactive means no such curve, though single readings can be large or run the other way.
Labels: label 1 (active), label 0 (inactive)

Compound: O=C(O)CC1CCC(c2ccc(-c3ccc4nc(C(=O)NCc5ccc(OC(F)(F)F)cc5)cn4c3)cc2)CC1 (stereo not given)
Category label: label 0
--
Compound: CCC(=O)Nc1ccc(O)cc1
Category label: label 0
--
Compound: CC(C)Nc1nc(Nc2ccccc2)nc(-c2ccccc2)n1
Category label: label 0
--
Compound: CO[C@@]1(NC(=O)Cc2cccs2)C(=O)N2C(C(=O)O)=C(COC(N)=O)CS[C@@H]21
Category label: label 0
--
Compound: Nc1ccc(C(=O)Nc2ccccc2N)cc1
Category label: label 1
--
Compound: CCOC(=O)C1=C(O)c2ccccc2S(=O)(=O)N1C
Category label: label 0
--
Compound: CC(C)OC(=O)N1CCC(Oc2ncnc3c2cnn3-c2ccc(S(C)(=O)=O)cc2F)CC1
Category label: label 0
--
Compound: COc1ccc(-c2cc(C(F)F)nn2-c2ccc(S(N)(=O)=O)cc2)cc1F
Category label: label 0
--
Compound: CC1(C)O[C@@H]2[C@@H](CO[C@@]3(COS(N)(=O)=O)OC(C)(C)O[C@@H]23)O1
Category label: label 0
--
Compound: CCCN(CCC)C(=O)C(CCC(=O)O)NC(=O)c1ccccc1 (stereo not given)
Category label: label 0
